List of Change in percentage of serum triglyceride, column A values.
# Test system: serum lipid values
# Test Summary: Reduction of serum lipid values in normolipemic rats (Table 1)
# Assay type: in vivo, male rats
# Condition Notes: 100 mg/kg/day p.o., 8 doses; A: referred to the initial value of the treated group
# Protocol: 1. Male rats having a normal serum lipid content were being treated for eight days with different daily doses mentioned in Table 1. The values given in that Table stand for a change in the serum concentrations of certain lipid classes. The doses were administered per os by means of an esophagal sound. […]

See these solved cases before continuing.
| Smi | Target | Experimental Value |
| --- | --- | --- |
| CCCCOC(=O)CCc1cc(C(C)(C)C)c(O)c(C(C)(C)C)c1 | serum lipid values | -54% |
| CCCCCCCCCCCCCCCCCCOC(=O)CCc1cc(C(C)(C)C)c(O)c(C(C)(C)C)c1 | serum lipid values | -33% |
| COC(=O)CCc1cc(C(C)(C)C)c(O)c(C(C)(C)C)c1 | serum lipid values | -60% |

// below: Change in percentage of serum triglyceride, column A requested for another molecule
Task: Requested field: Change in percentage of serum triglyceride, column A. Item: CC(C)(C)c1cc(CCC(=O)O)cc(C(C)(C)C)c1O
Output: -32%
